target: T1, human insulin-like growth factor-I (IGF-I) (human, UniProt P05019 49-118); test: Biacore low-resolution screen, mAb captured, IGF-I injected
T1 construct: also called IGF1; IGF-1
reportedEndpoint: pKd
On this scale, pKd is minus log10 of a concentration expressed in M (mol/L).

Entry under test: mAb 7.234.2 (antibody, V domains shown, Kappa light chain (L5/JK3); also called 7.234.1; 7_234_1) VH: QLQLQESGPGLVKPSETLSLTCTVSGGSINSSSNYWGWIRQPPGKGLAWIGGIYYSGSTYYNPSLRSRVTMSVDTSKNQFSLKLSSVTAADTAVYYCARQRGHSSGWWYFDLWGRGTLVTVSS VL: DIQMTQSPSSVSASVGDRVTITCRASRGISSWLAWYQQRPGKAPKLLIYTASSLQSGVPSRFSGSGSGTDFTLTISSLQPEDFATYYCQQANSFPFTFGPGTKVDIKR . Its pKd was 9.48
